These entries and their values trace back to PubChem BioAssay (NCI).

Tested on: NCI-H522 lung
Protocol Description: NCI tumour cell line growth inhibition, 48 h
Value Kind: GI50

Ask: What value of GI50 on NCI-H522 lung does O=C(Nc1cccc(Cl)c1)c1cc(Cl)ccc1O have?
Reply: 320 nM

Ask: What value of GI50 on NCI-H522 lung does N#Cc1c(-c2ccc(Cl)cc2)csc1NC(=O)Nc1cccc(C(F)(F)F)c1 have?
Reply: 1650 nM

Ask: What value of GI50 on NCI-H522 lung does Cc1ccc2c(C(C[N+](=O)[O-])c3ccco3)c(-c3ccccc3)[nH]c2c1 (stereo not given) have?
Reply: 3920 nM

Ask: What value of GI50 on NCI-H522 lung does Cc1ccc(NCCNCC(O)CO)c2c(=O)c3ccccc3sc12 (stereo not given) have?
Reply: 1910 nM

Ask: What value of GI50 on NCI-H522 lung does CNc1ccc(N=Nc2cccc3ncccc23)cc1 have?
Reply: 43700 nM

Ask: What value of GI50 on NCI-H522 lung does NCCn1c2c(c3ccccc3c1=O)C(=O)c1ccccc1-2 have?
Reply: 1240 nM

Ask: What value of GI50 on NCI-H522 lung does COc1ccc(-c2nn(-c3cccc(Cl)c3)cc2/C=C2\C(=N)N(c3ccccc3)N=C2N)cc1 have?
Reply: 916 nM

Ask: What value of GI50 on NCI-H522 lung does COC12C=C/C(=C(/C(=O)OCc3csc(SC)n3)C(=O)CCCCCCCCC3(OC)C=C/C(=C(/C(=O)OCc4cnc(SC)s4)C(=O)CCCCCCCC1)O3)O2 (stereo not given) have?
Reply: 1500 nM

Ask: What value of GI50 on NCI-H522 lung does COc1cccc(C2CC(=O)Nc3cc4c(cc32)CCC4)c1OC (stereo not given) have?
Reply: 3670 nM

Ask: What value of GI50 on NCI-H522 lung does CCOC(=O)C(=Cc1c(-c2ccccc2)[nH]c2ccccc12)C(=O)OCC have?
Reply: 3320 nM

* * *

System: SN12C renal
Protocol Description: NCI tumour cell line growth inhibition, 48 h
Record form. Attribute: TGI. Fill in for each entry.

Ask: Request the reported TGI associated with O=C1c2c(Br)sc(Br)c2[C@H]2OC(=S)N[C@@H]12
Reply: 8.7 µM

Ask: Request the reported TGI associated with COC(=O)[C@@H]1[C@H]2CC[C@]3(C)[C@@H](OC(C)=O)CC[C@H]3[C@@H]2CC[C@H]1C1(C)SCCS1
Reply: 37 µM

Ask: Request the reported TGI associated with CN(C)CN1C(=O)/C(=N\n2c(-c3ccncc3)n[nH]c2=S)c2ccccc21
Reply: > 100 µM

Ask: Request the reported TGI associated with O=C1Cc2ccccc2CCc2ccccc21
Reply: > 100 µM

Ask: Request the reported TGI associated with Fc1ccc(OCc2ccc3nc(-c4ccccc4)c(Cl)nc3c2)cc1
Reply: > 100 µM

Ask: Request the reported TGI associated with CC(=O)c1c(Nc2ccc(F)c(F)c2F)[nH]c2c(F)cc(F)cc2c1=O
Reply: 3.45 µM

Ask: Request the reported TGI associated with CCCCCc1cc(CCCC)sc1-c1ccco1
Reply: > 100 µM

Ask: Request the reported TGI associated with COc1ccccc1Cn1c2c(c3cc(O)ccc31)C(=O)c1ccccc1C2=O
Reply: > 100 µM

Ask: Request the reported TGI associated with CCCC/C=C1\CCC(CN2CCCC2)C1=O (stereo not given)
Reply: 32 µM

Ask: Request the reported TGI associated with CCOC(=O)c1c(-c2ccc(OC)cc2)c(C#N)c(=S)n(C2OC(CO)C(O)C(O)C2O)c1C (stereo not given)
Reply: > 100 µM

Ask: Request the reported TGI associated with Cn1c2ccccc2c2c3c(=O)[nH][nH]c(=O)c3c3c4ccccc4n(C)c3c21
Reply: > 100 µM

Ask: Request the reported TGI associated with O=C1CCCC2=C1CC1=C(CCCC1=O)N2c1ccc(-c2ccccc2)cc1
Reply: > 100 µM

Ask: Request the reported TGI associated with CC(=O)Nc1ccc2c(c1)nc1c3ccccc3ccn21
Reply: > 100 µM

Ask: Request the reported TGI associated with CN1C=C(C(N)=O)C2CC(O)[C@@](NC(=O)CS(N)(=O)=O)(C(=O)O)C2C1 (stereo not given in full)
Reply: > 75.1 µM

Ask: Request the reported TGI associated with O=C(/C(=N/Nc1cn[nH]c(=O)c1Cl)c1ccccc1)c1ccccc1
Reply: > 100 µM

Ask: Request the reported TGI associated with BrC(Br)([P+](c1ccccc1)(c1ccccc1)c1ccccc1)[P+](c1ccccc1)(c1ccccc1)c1ccccc1
Reply: 61.3 µM

Ask: Request the reported TGI associated with NCCNc1nc2ccccc2c2c(=O)c3cc(F)cc(Cl)c3sc12
Reply: 3.17 µM

Ask: Request the reported TGI associated with Cc1nc2cc(Nc3nc(Nc4ccc(F)cc4)nc(-c4ccc(Cl)cc4)n3)ccc2n1Cc1ccccc1
Reply: > 100 µM

Ask: Request the reported TGI associated with Cc1cc2c(-c3nc4ccccn4c3NC34CC5CC(CC(C5)C3)C4)c(O)c(O)cc2c(O)c1-c1c(C)cc2c(-c3nc4ccccn4c3NC34CC5CC(CC(C5)C3)C4)c(O)c(O)cc2c1O
Reply: > 25 µM

Ask: Request the reported TGI associated with CCC1(Cl)C(=O)NC(=O)N(C2CC(O)C(CO)O2)C1N=[N+]=[N-] (stereo not given)
Reply: > 100 µM
